tested on: Caco-2 monolayer permeability, A-to-B, LC-MS/MS; assay: Inhibitors of HPGD: Caco-2 Cell Permeability Profiling; settings: hits give high values
Each entry below carries its reported permeability Papp.

Query Smiles	Experimental System	permeability Papp
Cc1cc(-c2nnc3n2CCCCC3)c(C)n1-c1ccccc1	Caco-2 monolayer permeability, A-to-B, LC-MS/MS	21 10^-6 cm/s

Pending compound:
Incoming: Return reported permeability Papp; argument: Cc1cccc(-n2cnc3cc(C(=O)N4CCCCC4)ccc32)c1
Outgoing: 15 10^-6 cm/s

Where these numbers come from: PubChem BioAssay AID504629
